# assay.target: T1, full-length mouse kindlin2 (mouse, UniProt Q8CIB5 1-680)
# T1 construct: full-length mouse kindlin2, cloned into pET28a with 10xHis-SUMO tag and HRV-3C site at the N-terminal; also called kindlin2 protein; source: Escherichia coli Rosetta(DE3), purified (IMAC, tag cleavage by HRV 3C, SEC); not shown: 10xHis, N-terminal, cleaved; SUMO, N-terminal, cleaved
# T1 sequence (looked up): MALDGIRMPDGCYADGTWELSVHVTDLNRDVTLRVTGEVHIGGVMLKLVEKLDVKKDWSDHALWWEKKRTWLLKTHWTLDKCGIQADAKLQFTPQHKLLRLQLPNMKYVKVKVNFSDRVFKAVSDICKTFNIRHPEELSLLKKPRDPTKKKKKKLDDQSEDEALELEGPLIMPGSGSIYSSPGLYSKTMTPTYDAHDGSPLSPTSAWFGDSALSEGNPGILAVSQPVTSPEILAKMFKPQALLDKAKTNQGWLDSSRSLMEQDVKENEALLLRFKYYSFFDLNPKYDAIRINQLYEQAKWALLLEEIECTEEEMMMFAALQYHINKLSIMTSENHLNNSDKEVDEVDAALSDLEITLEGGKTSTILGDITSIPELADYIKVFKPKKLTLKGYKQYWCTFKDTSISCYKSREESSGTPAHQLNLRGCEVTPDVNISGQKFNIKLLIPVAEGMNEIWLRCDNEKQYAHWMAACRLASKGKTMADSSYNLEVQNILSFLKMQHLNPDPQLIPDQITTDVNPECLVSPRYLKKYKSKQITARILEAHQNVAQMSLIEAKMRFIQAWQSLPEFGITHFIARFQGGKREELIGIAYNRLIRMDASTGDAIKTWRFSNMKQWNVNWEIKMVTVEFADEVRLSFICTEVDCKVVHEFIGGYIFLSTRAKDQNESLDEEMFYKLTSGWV
# protocol.summary: MST; Monolith NT.115; FITC-labeled tail peptide constant at 10 µM, kindlin2 titrated 42.5 to 0.0013 µM; 20 mM Tris pH 7.5, 200 mM sodium chloride, 1 mM TCEP, 5% glycerol; 10-20% LED power; Kd model
# run.conditions: both partners purified
Where no end group is shown, it is not given here.
I'd be grateful if you could share measured pKd for these entries.
Answers are plain numbers, as −log10 of the molar value.

binder	numeric.value
FITC-labeled cytoplasmic tail of wildtype integrin β6 (peptide, UniProt P18564 731-788, looked up, also: FITC label, position not given here, cytoplasmic tail of integrin β6; also called cytoplasmic tail of integrin β6; integrin β tail peptide; source: synthetic peptide, synthesized by Sangon Biotech) peptide: KLLVSFHDRKEVAKFEAERSKAKWQTGTNPLYRGSTSTFKNVTYKHREKQKVDLSTDC	4.58

What value of pKd has been reported for the following binder? KLLMIIHDRREFAKFEKEKMNAKWDTGENPIYKSAVTTVVNPKYEGK (peptide, UniProt P05556 752-798, looked up, also: FITC label, position not given here, cytoplasmic tail of integrin β1; also called cytoplasmic tail of integrin β1; integrin β tail peptide; source: synthetic peptide, synthesized by Sangon Biotech) [FITC-labeled cytoplasmic tail of wildtype integrin β1]
6.38
